So I've got a bunch of compounds here, and I need their EC50 values.
Target desc: UniProt:Q9QUQ5
Sequence (Q9QUQ5 whole entry): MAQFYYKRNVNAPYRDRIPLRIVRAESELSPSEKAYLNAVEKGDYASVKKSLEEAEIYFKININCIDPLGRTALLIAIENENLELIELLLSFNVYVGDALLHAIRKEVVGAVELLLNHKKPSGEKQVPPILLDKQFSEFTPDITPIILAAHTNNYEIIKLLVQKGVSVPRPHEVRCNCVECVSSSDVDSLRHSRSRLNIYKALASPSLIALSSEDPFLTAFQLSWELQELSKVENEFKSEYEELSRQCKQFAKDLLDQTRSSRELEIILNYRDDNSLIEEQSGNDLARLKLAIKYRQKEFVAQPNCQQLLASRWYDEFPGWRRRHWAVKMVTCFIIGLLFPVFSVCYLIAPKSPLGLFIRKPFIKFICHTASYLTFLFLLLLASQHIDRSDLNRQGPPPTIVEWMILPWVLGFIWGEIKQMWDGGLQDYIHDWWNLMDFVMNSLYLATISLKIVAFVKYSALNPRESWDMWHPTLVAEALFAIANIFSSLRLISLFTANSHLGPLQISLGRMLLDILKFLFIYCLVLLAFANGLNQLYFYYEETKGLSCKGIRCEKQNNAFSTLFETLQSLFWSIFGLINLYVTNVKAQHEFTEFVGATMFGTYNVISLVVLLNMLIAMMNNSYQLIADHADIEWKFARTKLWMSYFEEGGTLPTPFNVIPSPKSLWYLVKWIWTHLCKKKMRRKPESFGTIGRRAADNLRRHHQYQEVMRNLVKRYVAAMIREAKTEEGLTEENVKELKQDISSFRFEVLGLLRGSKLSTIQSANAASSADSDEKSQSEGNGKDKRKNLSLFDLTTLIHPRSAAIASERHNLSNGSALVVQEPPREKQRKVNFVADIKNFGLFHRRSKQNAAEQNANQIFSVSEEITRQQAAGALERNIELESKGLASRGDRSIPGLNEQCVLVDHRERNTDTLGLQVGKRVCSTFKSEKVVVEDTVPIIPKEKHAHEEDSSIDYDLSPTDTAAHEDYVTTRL
Experiment notes: mouse TRPC4 channel inhibitors, dose response, cell-based, HEK293 TRPC4/mu-opioid, Fluo-4 calcium (AID 434942);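 further: potency of inhibitors blocking the TRPC4 calcium response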
Type: functional
Calls of active or inactive are those of the source.

Worked examples, 5 compounds total:
The compound identified as "Cc1nc(N2CCN(c3ccccn3)CC2)c2c(C)c(C(=O)N3CCN(c4ccc(F)cc4)CC3)sc2n1" registered its EC50 at 1190 nM (active)

The compound identified as "CC(C)C1=Nc2cccc3cccc(c23)N1" registered its EC50 at 2370 nM (active)

The compound identified as O=C(OC1C2CCC1C1CN(CCc3ccccc3)CC12)c1ccccc1 (stereo unspecified) registered its EC50 at 3350 nM (active)

The compound identified as O=C(NCCCN1CCOCC1)c1ccc(NC(=O)C2COc3ccccc3O2)cc1 (stereo unspecified) registered its EC50 at 15000 nM (active)

The compound identified as "C=CCNc1nc(N2CCCC2)nc2ccccc12" registered its EC50 at 1190 nM (active)

Okay, next one:
The compound identified as OC(COc1ccccc1)CN1C2=NCCCN2c2ccccc21 (stereo unspecified) registered its EC50 at 13300 nM (active)

---

So I've got a bunch of compounds here, and I need their AC50 values.
Target desc: Cytochrome P450 1A2 (Homo sapiens, UniProt P05177);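 further: PubChem cytochrome P450 panel assay, CYP1A2 panel member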
Sequence (P05177 whole entry): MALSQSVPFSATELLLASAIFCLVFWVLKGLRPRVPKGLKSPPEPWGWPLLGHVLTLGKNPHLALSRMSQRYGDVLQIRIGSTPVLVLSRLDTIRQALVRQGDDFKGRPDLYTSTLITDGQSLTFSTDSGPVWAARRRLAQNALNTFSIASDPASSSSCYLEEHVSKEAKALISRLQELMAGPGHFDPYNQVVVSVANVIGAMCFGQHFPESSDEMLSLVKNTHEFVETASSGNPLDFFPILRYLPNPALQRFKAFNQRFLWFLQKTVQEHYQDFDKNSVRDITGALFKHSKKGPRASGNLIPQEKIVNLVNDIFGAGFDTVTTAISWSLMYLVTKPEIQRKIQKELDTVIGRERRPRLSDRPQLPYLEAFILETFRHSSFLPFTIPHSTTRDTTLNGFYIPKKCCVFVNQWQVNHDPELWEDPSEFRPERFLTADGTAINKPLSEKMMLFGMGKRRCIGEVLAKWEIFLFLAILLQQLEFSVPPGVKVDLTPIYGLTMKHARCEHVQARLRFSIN

Worked examples, 5 compounds total:
Sample "c1ccc(CN2CCC3(CCc4ccccc43)CC2)cc1" , system: Cytochrome P450 1A2 (Homo sapiens, UniProt P05177). Its AC50 is 31.6 µM (inconclusive)

Sample "COCCn1c(=O)c(-c2cccc(C#N)c2)nc2cnc(N3CCN(C)CC3)nc21" , system: Cytochrome P450 1A2 (Homo sapiens, UniProt P05177). Its AC50 is 15.8 µM (inconclusive)

Sample "CC(C)C(=O)NCCc1nc2ccccc2n1CCCOc1ccc(Cl)cc1" , system: Cytochrome P450 1A2 (Homo sapiens, UniProt P05177). Its AC50 is 28.2 µM (inconclusive)

Sample "CCCCC(=O)N/N=C(\C)CC(=O)Nc1cc(Cl)ccc1OC" , system: Cytochrome P450 1A2 (Homo sapiens, UniProt P05177). Its AC50 is 12.6 µM (inconclusive)

Sample "Cc1cc(C(=O)NCc2ccccc2)no1" , system: Cytochrome P450 1A2 (Homo sapiens, UniProt P05177). Its AC50 is 0.398 µM (inconclusive)

Hello, I would appreciate it if you could give AC50 for each entry below.
1. COc1ccc(S(=O)(=O)NNC(=O)C2Cc3c(ccc4ccccc34)O2)cc1 (configuration not stated)
2. COc1ccc(Oc2ncc3nc(-c4ccc(F)cc4)c(=O)n(Cc4cccs4)c3n2)cc1

(A)
1: 25.1 µM (inconclusive); 2: 5.01 µM (inconclusive)

---

Target desc: Replicative DNA helicase DnaB (Mycobacterium tuberculosis, UniProt P9WMR3)
Sequence (P9WMR3 whole entry): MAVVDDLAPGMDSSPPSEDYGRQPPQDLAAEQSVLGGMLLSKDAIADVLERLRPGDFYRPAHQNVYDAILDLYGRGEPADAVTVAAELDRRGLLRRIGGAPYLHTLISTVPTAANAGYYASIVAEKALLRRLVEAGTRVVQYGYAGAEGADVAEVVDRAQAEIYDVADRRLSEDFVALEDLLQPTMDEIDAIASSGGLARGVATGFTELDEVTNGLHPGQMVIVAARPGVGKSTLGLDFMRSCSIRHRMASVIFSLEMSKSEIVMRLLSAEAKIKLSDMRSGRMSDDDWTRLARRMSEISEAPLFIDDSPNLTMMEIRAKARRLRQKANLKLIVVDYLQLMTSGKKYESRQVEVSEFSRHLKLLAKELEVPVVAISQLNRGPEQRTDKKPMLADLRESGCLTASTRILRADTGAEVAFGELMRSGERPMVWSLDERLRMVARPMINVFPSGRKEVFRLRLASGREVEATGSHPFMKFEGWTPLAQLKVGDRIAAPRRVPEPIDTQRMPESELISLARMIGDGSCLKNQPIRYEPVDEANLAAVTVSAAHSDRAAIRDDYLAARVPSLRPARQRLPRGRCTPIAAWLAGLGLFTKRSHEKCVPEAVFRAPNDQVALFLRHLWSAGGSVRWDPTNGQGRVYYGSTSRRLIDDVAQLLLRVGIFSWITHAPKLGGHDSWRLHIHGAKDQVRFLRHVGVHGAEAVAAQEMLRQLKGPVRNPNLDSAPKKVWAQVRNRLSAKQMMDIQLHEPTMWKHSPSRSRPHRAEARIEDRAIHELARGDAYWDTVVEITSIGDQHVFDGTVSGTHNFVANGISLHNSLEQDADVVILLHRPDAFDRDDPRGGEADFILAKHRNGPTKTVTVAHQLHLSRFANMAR
Experiment notes: DnaB intein splicing inhibitors, dose response, biochemical, cell-free fluorescence (AID 449749)
Format: functional
Calls of active or inactive are those of the source.
Field 'call' accepts class 1 for active, class 0 for inactive

Example results:
(Q) Could you check what this test reported for CC(C)(C)c1[nH]nc2c1C(c1ccco1)C(C#N)=C(N)O2 (stereo unspecified) ?
(A) class 1

(Q) Could you check what this test reported for "O=c1cc(-c2ccc(F)cc2)[nH][nH]1" ?
(A) class 1

(Q) Could you check what this test reported for CC1(C)CC(CCNC(=O)CCl)(c2ccccc2)CCO1 (stereo unspecified) ?
(A) class 1

Continuing:
(Q) Could you check what this test reported for "O=S(=O)(CCSc1ccccn1)c1nc2ccccc2s1" ?
(A) class 1

(Q) Could you check what this test reported for "COc1ccc(Br)cc1[C@H]1[C@@H]2C=CCC[C@@]2(C)C(=O)N1Cc1ccccc1" ?
(A) class 0

(Q) Could you check what this test reported for "N#Cc1nc(N)nc(N(c2ccccc2)c2ccccc2)n1" ?
(A) class 1

(Q) Could you check what this test reported for O=C(CSc1ncnc2c1nnn2-c1ccc(F)cc1)NCC1CCCO1 (stereo unspecified) ?
(A) class 1

(Q) Could you check what this test reported for "CC(=O)n1cc(N(C(=O)CCl)c2ccc([N+](=O)[O-])cc2)c2ccccc21" ?
(A) class 1

(Q) Could you check what this test reported for "CC(=O)C(=NNc1cccc(Cl)c1)Nc1ccc(Cl)cc1Cl" ?
(A) class 1

(Q) Could you check what this test reported for O=C(CCl)N1CCN2C(=O)c3ccccc3C12c1ccc(Cl)cc1 (stereo unspecified) ?
(A) class 1

(Q) Could you check what this test reported for "CCCCCc1c2c(cc(O)c1C(=O)O)OC(=O)c1c(cc(OC)cc1C(=O)CCCC)O2" ?
(A) class 1
